These entries and their values trace back to patent US10450549B2.

# target-or-system: AAD1 (v1) (Sphingobium herbicidovorans, UniProt Q8KSC8)
# Construct: made in house; host or cells: E. coli BL-21 Star (DE3), plasmid pDAB3203
# test: Colorimetric phenol detection assay of AAD1 (v1) activity (purified enzyme or E. coli extract)
# Assay type: biochemical
# measurement-parameters: Table 8; 1 mM; 27 μg crude recombinant AAD1 (v1) extract from E. coli
measured-attribute: A510

                                   compound  measured_attribute  readout_value
0                    O=C(O)COc1ccc(Cl)cc1Cl                A510          0.177
1                     Cc1cc(Cl)ccc1OCC(=O)O                A510          0.097
2  CC(Oc1cc(F)c(Cl)c(N)c1Cl)C(=O)O (racemic) [(R,S)-3-amino, 5-F-dichlorprop]                A510          0.221
3                 O=C(O)COc1cc(F)c(Cl)cc1Cl                A510          0.056

###

Overview of reported Ave % Injury 14DAT across a group of compounds:
# System: T4 Arabidopsis homozygous for AAD1 (v3) (line AAD1.01.315.076)
# test: Foliar-applied auxinic herbicides on homozygous T4 AAD1 (v3) Arabidopsis, % injury 14 DAT
# Format: in vivo, Arabidopsis thaliana
# measurement-parameters: 50 g ae/ha foliar; AAD1.01.315.076.T4 homozygous AAD1 plants
measured-attribute: Ave % Injury 14DAT (%)

In [3]: df
Out[3]:
                                   compound  unit_label  readout_value
0                 Oc1ccc(Cl)cc1Cl [2,4-DCP]           %              0
1    O=C(O)COc1nc(Cl)c(Cl)cc1Cl [Triclopyr]           %             31
2  Cc1cc(Cl)ccc1OC(C)C(=O)O (racemic) [(R,S)-mecoprop]           %              0
3  Nc1c(Cl)c(F)nc(OCC(=O)O)c1Cl [Fluroxypyr]           %             48
4  C[C@@H](Oc1ccc(Cl)cc1Cl)C(=O)O [R-dichlorprop]           %              3
5      CNC.O=C(O)COc1ccc(Cl)cc1Cl [2,4-DMA]           %              0

###

# target-or-system: AAD2 (v1) (Bradyrhizobium diazoefficiens)
# test: Colorimetric phenol assay of AAD2 (v1) E. coli extract / partially purified enzyme
# Type: biochemical, Bradyrhizobium japonicum
# measurement-parameters: substrate 0.5 mM, 15 min, 25 mM MOPS pH 6.8; 3 μl AAD2 extract (42 μg protein)
So basically, if A510 AAD2 comes in under 0.01 it's yes (1), and if it's 0.01 or more it's no (0).

                                   compound  discrete_label
0  O=C(O)COc1ccc(Oc2ncc(C(F)(F)F)cc2Cl)cc1 [haloxyfop- oxyacetate]          no (0)
1  C[C@@H](Oc1ccc(Oc2ccc(C#N)cc2F)cc1)C(=O)O [(R)- cyhalofop]         yes (1)
2  C[C@@H](Oc1ccc(Oc2nc3ccc(Cl)cc3o2)cc1)C(=O)O [(R)- fenoxaprop]         yes (1)
3  CC(Oc1ccc(Oc2ncc(C(F)(F)F)cc2Cl)cc1)C(=O)O (racemic) [haloxyfop]          no (0)
4  CC(Oc1ccc(Oc2ccc(C#N)cc2F)cc1)C(=O)O (racemic) [(R,S)- cyhalofop]          no (0)
5  C[C@H](Oc1ccc(Oc2ccc(C#N)cc2F)cc1)C(=O)O [(S)- cyhalofop]          no (0)
6  CC(Oc1ccc(Oc2ncc(C(F)(F)F)cc2Cl)cc1)C(=O)O (centres unmarked) [compound 8671]         yes (1)

###

# Test system: T4 Arabidopsis homozygous for AAD1 (v3) (line AAD1.01.315.076)
# test: Foliar-applied auxinic herbicides on homozygous T4 AAD1 (v3) Arabidopsis, % injury 14 DAT
# Assay type: in vivo, Arabidopsis thaliana
# measurement-parameters: 800 g ae/ha foliar; AAD1.01.315.076.T4 homozygous AAD1 plants
Reported Ave % Injury 14DAT by item:
measured-attribute: Ave % Injury 14DAT (%)

                                   compound  measured_attribute  readout_value
0  Cc1cc(Cl)ccc1OC(C)C(=O)O (racemic) [(R,S)-mecoprop]  Ave % Injury 14DAT              0
1                 Oc1ccc(Cl)cc1Cl [2,4-DCP]  Ave % Injury 14DAT              0
2  C[C@@H](Oc1ccc(Cl)cc1Cl)C(=O)O [R-dichlorprop]  Ave % Injury 14DAT              3
3    O=C(O)COc1nc(Cl)c(Cl)cc1Cl [Triclopyr]  Ave % Injury 14DAT             74
4      CNC.O=C(O)COc1ccc(Cl)cc1Cl [2,4-DMA]  Ave % Injury 14DAT              0
5  Nc1c(Cl)c(F)nc(OCC(=O)O)c1Cl [Fluroxypyr]  Ave % Injury 14DAT             88

###

# System: Arabidopsis thaliana var. Columbia
# test: Arabidopsis plate test bioassay for herbicide degradation
# Format: in vivo
# measurement-parameters: Escherichia coli, in Arabidopsis thaliana, 168 h; cell lysate of E. coli pET vector without gene insert; read-out: GR50, Chemical + Blank Vector
Form field: IC50 (one value per entry).
measured-attribute: IC50 (µM)

In [3]: df
Out[3]:
                                   molecule  readout_value
0  Nc1c(Cl)c(F)nc(OCC(=O)O)c1Cl [Fluroxypyr]           2.25
1  CC(Oc1ccc(Cl)cc1Cl)C(=O)O (racemic) [(R,S)-dichlorprop, 2,4-dichlorophenoxypropionic acid]           0.03

###

# target-or-system: AAD1 (v1) (Sphingobium herbicidovorans)
# Construct: made in house; host or cells: E. coli BL-21 Star (DE3), plasmid pDAB3203
# test: Colorimetric phenol detection assay of AAD1 (v1) activity (purified enzyme or E. coli extract)
# Type: biochemical
# measurement-parameters: Table 3; substrate 1 mM; 10 μg purified AAD1 (v1) per 0.16 ml assay; 15 min
A510, AAD1 (10x) by entry:
measured-attribute: A510, AAD1 (10x)

In [3]: df
Out[3]:
                                    compound                         target_or_system  measured_attribute  readout_value
 0  Cc1cc(Cl)ccc1OC(C)C(=O)O (racemic) [(R,S)-mecoprop]  AAD1 (v1) (Sphingobium herbicidovorans)    A510, AAD1 (10x)          2.085
 1                 Nc1c(Cl)ccc(OCC(=O)O)c1Cl  AAD1 (v1) (Sphingobium herbicidovorans)    A510, AAD1 (10x)          0.069
 2  CCC(Oc1ccc(Cl)cc1Cl)C(N)=O (centres unmarked)  AAD1 (v1) (Sphingobium herbicidovorans)    A510, AAD1 (10x)          0.204
 3     O=S(=O)([O-])OCCOc1ccc(Cl)cc1Cl.[Na+]  AAD1 (v1) (Sphingobium herbicidovorans)    A510, AAD1 (10x)          0.177
 4                  O=C(O)CCCOc1ccc(Cl)cc1Cl  AAD1 (v1) (Sphingobium herbicidovorans)    A510, AAD1 (10x)          0.021
 5  CC(Oc1ccc(Cl)c(N)c1Cl)C(=O)O (racemic) [(R,S)-3-aminodichlorpop]  AAD1 (v1) (Sphingobium herbicidovorans)    A510, AAD1 (10x)          2.676
 6                     O=C(O)COc1ccc(F)cc1Cl  AAD1 (v1) (Sphingobium herbicidovorans)    A510, AAD1 (10x)          0.058
 7                    O=C(O)COc1ccc(Cl)cc1Cl  AAD1 (v1) (Sphingobium herbicidovorans)    A510, AAD1 (10x)          0.383
 8        CC(Oc1ccc(F)cc1Cl)C(=O)O (racemic)  AAD1 (v1) (Sphingobium herbicidovorans)    A510, AAD1 (10x)          2.358
 9              CC(C)COC(=O)COc1ccc(Cl)cc1Cl  AAD1 (v1) (Sphingobium herbicidovorans)    A510, AAD1 (10x)          0.211
10  CC(Oc1ccc(Cl)cc1Cl)C(=O)O (racemic) [(R,S)-dichlorprop, 2,4-dichlorophenoxypropionic acid]  AAD1 (v1) (Sphingobium herbicidovorans)    A510, AAD1 (10x)          2.594
